SUBJECT OF TEST: His-Δ129GAC (Homo sapiens)
Construct: to generate peptides from amino acids 17‐598 and 73‐598 and 130‐598, respectively; made in house; host or cells: Escherichia coli BL21DE3 Rosetta (pRARE)
Sequence (O94925 130-598 isoform O94925-3): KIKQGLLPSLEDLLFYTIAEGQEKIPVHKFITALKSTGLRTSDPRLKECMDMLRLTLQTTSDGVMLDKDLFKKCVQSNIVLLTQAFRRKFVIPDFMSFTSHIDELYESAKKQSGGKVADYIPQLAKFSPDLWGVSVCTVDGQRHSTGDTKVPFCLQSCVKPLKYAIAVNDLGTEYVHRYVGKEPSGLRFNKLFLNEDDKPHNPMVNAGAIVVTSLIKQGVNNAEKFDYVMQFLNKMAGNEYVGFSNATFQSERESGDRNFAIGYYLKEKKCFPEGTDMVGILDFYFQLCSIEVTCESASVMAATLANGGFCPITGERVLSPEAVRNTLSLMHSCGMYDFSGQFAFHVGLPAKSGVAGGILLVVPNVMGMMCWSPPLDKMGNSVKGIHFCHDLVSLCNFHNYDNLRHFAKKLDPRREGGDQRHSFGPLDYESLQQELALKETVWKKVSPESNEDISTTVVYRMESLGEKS
EXPERIMENT DESCRIPTION: Microscale thermophoresis (MST), labelled and nonlabelled
Format: binding
EXPERIMENTAL CONTEXT: 100 nM nonlabelled Δ129GAC, C19 0–1000 µM, 25 °C; read-out: Kd, nonlabelled MST
OBSERVED PROPERTY: pKd
Entry type: numeric. Quantity: pKd, the -log10 of concentration in molar units.

-- ask Please report pKd for the following compound: `O=C(NCCNc1nc2ccccc2s1)c1cccnc1S`
-- reply 4.70

---

SUBJECT OF TEST: His-Δ129GAC (Homo sapiens)
Construct: to generate peptides from amino acids 17‐598 and 73‐598 and 130‐598, respectively; made in house; host or cells: Escherichia coli BL21DE3 Rosetta (pRARE)
EXPERIMENT DESCRIPTION: Microscale thermophoresis (MST), labelled and nonlabelled
Assay type: binding
EXPERIMENTAL CONTEXT: NT-647-labelled Δ129GAC 25 nM, 25 °C; read-out: Kd, labelled MST
OBSERVED PROPERTY: pKd
Entry type: numeric. Quantity: pKd, the -log10 of concentration in molar units.

-- ask Please report pKd for the following compound: O=C(NCCNc1nc2ccccc2s1)c1cccnc1S [C19]
-- reply 4.83

---

Tested on: MDA-231 TNBC cells
EXPERIMENT DESCRIPTION: Thymidine incorporation proliferation assay, MDA-231
Type: cell-based
EXPERIMENTAL CONTEXT: Homo sapiens, MDA-MB-231, 72 h, read-out: IC50 proliferation MDA-231
OBSERVED PROPERTY: pIC50
Entry type: numeric. Quantity: pIC50, the -log10 of concentration in molar units.

-- ask Please report pIC50 for the following compound: O=C(Cc1cccc(OC(F)(F)F)c1)Nc1ccc(CCCCc2nnc(NC(=O)Cc3ccccn3)s2)nn1 [CB839, Telaglenastat]
-- reply 9.72

---

SUBJECT OF TEST: recombinant human glutaminase Δ129GAC (Homo sapiens, UniProt O94925)
Construct: to generate peptides from amino acids 17‐598 and 73‐598 and 130‐598, respectively
EXPERIMENT DESCRIPTION: Coupled GLS/GDH enzyme assay (HTS and dose response), NADH readout
EXPERIMENTAL CONTEXT: 10-point dose response, twofold serial dilution 0.39–200 µM, nonlinear curve fitting; read-out: IC50 for Δ129GAC inhibition
Kindly supply the reported IC50 values for the records listed here.
Kindly answer with a numeric value in µM, unit omitted.

-- ask Using recombinant human glutaminase Δ129GAC (Homo sapiens, UniProt O94925) as the test system, report measured IC50 of Cc1ccc(-c2nnc3n2CCCCC3)cc1NC(=O)Cc1sc(S)nc1C [C15] .
-- reply 5.7

-- ask Using recombinant human glutaminase Δ129GAC (Homo sapiens, UniProt O94925) as the test system, report measured IC50 of O=C(NCCNc1nc2ccccc2s1)c1cccnc1S [C19] .
-- reply 6.8

-- ask Using recombinant human glutaminase Δ129GAC (Homo sapiens, UniProt O94925) as the test system, report measured IC50 of Sc1nc(-c2ccccc2)cn1N=Cc1ccncc1 [C2] .
-- reply 2.3
